- experimental_target: FXR ligand binding domain (Homo sapiens)
- experiment_notes: Mammalian One Hybrid (M1H) Gal4 reporter assay in HEK293 cells
- particulars: potency range
pEC50: −log10 of the molar value.
In this section, each of the molecules is paired with its reported pEC50.

The following molecules have reported results that may help.
molecule="O=C(O)c1cccc(C2CC2c2ccc(OCc3c(-c4c(Cl)c[n+]([O-])cc4Cl)noc3C3CC3)cc2Cl)c1 (stereo not drawn) [Example 2]" observation_type=pEC50 result="7.00 to 8.00"
molecule="Clc1cc(OCc2c(-c3c(Cl)cccc3Cl)noc2C2CC2)ccc1C1CC1c1ccc(-c2nnn[nH]2)cc1 (stereo not drawn) [Example 16]" observation_type=pEC50 result="7.00 to 8.00"

Below: the item to evaluate.
Note down pEC50 recorded for O=C(O)c1cccc(C2CC2c2ccc(OCc3c(-c4c(Cl)cccc4Cl)noc3C3CC3)cc2Cl)c1 (single isomer, unassigned; (+)) [Example 5b]
< 7.00

---

In this section, each of the compounds is paired with its reported EC50.
- experimental_target: human FXR alpha ligand binding domain (Homo sapiens, UniProt Q96RI1)
- Sequence (Q96RI1 187-472 isoform Q96RI1-2): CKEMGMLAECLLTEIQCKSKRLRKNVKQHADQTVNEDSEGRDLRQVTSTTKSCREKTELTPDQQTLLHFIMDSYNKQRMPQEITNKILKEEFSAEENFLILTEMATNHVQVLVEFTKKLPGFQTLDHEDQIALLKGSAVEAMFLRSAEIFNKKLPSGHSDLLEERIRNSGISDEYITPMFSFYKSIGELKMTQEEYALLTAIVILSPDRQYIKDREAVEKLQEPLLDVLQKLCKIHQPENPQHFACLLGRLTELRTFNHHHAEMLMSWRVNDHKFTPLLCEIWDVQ
- experiment_notes: FRET activity assay (ligand mediated cofactor peptide interaction, LANCE)
- particulars: potency range

The following compounds have reported results that may help.
compound="O=C(O)c1cccc(C2CC2c2ccc(OCc3c(-c4c(Cl)cccc4Cl)noc3C3CC3)cc2Cl)c1 (single isomer, unassigned; (+)) [Example 5b]" experimental_target="human FXR alpha ligand binding domain (Homo sapiens, UniProt Q96RI1)" result="> 100 nM"
compound="O=C(O)c1cccc(C2CC2c2ccc(OCc3c(-c4c(Cl)c[n+]([O-])cc4Cl)noc3C3CC3)cc2Cl)c1 (stereo not shown)" experimental_target="human FXR alpha ligand binding domain (Homo sapiens, UniProt Q96RI1)" result="10 to 100 nM"
compound="Cn1nc(C(=O)O)c2ccc(C3CC3c3ccc(OCc4c(-c5c(Cl)cccc5Cl)noc4C4CC4)cc3Cl)cc21 (racemic) [Example 13]" experimental_target="human FXR alpha ligand binding domain (Homo sapiens, UniProt Q96RI1)" result="10 to 100 nM"
compound="O=C(O)c1cccc(C2CC2c2ccc(OCc3c(-c4c(Cl)cccc4Cl)noc3C3CC3)cc2Cl)c1 (single isomer, unassigned; (-)) [Example 5a]" experimental_target="human FXR alpha ligand binding domain (Homo sapiens, UniProt Q96RI1)" result="< 10 nM"

Note down EC50 recorded for Cc1cc(C2CC2c2ccc(OCc3c(-c4c(Cl)cccc4Cl)noc3C3CC3)cc2Cl)cc(C)c1C(=O)O (stereo not shown)
10 to 100 nM

Note down EC50 recorded for CC(C)n1nc(C(=O)O)cc1C1CC1c1ccc(OCc2c(-c3c(Cl)cccc3Cl)noc2C2CC2)cc1Cl (stereo not shown)
< 10 nM

Note down EC50 recorded for O=C(O)c1ccc(C2CC2c2ccc(OCc3c(-c4c(Cl)cccc4Cl)noc3C3CC3)cc2Cl)cn1 (stereo not shown)
10 to 100 nM

---

In this section, each of the molecules is paired with its reported AUC(0-inf).
- experiment_notes: Pharmacokinetics in rat after intravenous administration 1 mg/kg
- Type: in vivo, Male Sprague Dawley Rat
- particulars: male, Sprague Dawley, plasma, iv; rat, 1 mg/kg i.v.
Give just the number in ng·h/mL; leave the unit off.

The following molecules have reported results that may help.
molecule="O=C(O)c1cccc(C2CC2c2ccc(OCc3c(-c4c(Cl)cccc4Cl)noc3C3CC3)cc2Cl)c1 (racemic)" result_number=923
molecule="O=C(O)c1ccc(C2CC2c2ccc(OCc3c(-c4c(Cl)cccc4Cl)noc3C3CC3)cc2Cl)cc1 (racemic)" result_number=440

Below: the item to evaluate.
Note down AUC(0-inf) recorded for CC(C)c1onc(-c2c(Cl)cccc2Cl)c1COc1ccc(/C=C/c2cccc(C(=O)O)c2)c(Cl)c1 [GW4064, reference compound]
294

---

- experiment_notes: Pharmacokinetics in rat after intravenous administration 1 mg/kg
- Type: in vivo, Male Sprague Dawley Rat
- particulars: male, Sprague Dawley, plasma; rat, 1 mg/kg i.v.; footnote: Co for Intravenous
In this section, each of the molecules is paired with its reported Cmax.
Give just the number in ng/mL; leave the unit off.

Note down Cmax recorded for CC(C)c1onc(-c2c(Cl)cccc2Cl)c1COc1ccc(/C=C/c2cccc(C(=O)O)c2)c(Cl)c1 [GW4064, reference compound]
565

Note down Cmax recorded for O=C(O)c1cccc(C2CC2c2ccc(OCc3c(-c4c(Cl)cccc4Cl)noc3C3CC3)cc2Cl)c1 (racemic)
1500

Note down Cmax recorded for O=C(O)c1ccc(C2CC2c2ccc(OCc3c(-c4c(Cl)cccc4Cl)noc3C3CC3)cc2Cl)cc1 (racemic)
895

---

In this section, each of the compounds is paired with its reported Cmax.
- experiment_notes: Pharmacokinetics in monkeys after oral administration 12 mg/kg
- Type: in vivo, Cynomolgus monkeys (Macacca mulatta)
- particulars: Cynomolgus, cynomolgus monkey, plasma, oral 12 mg/kg, Avg
- Experimental: Compounds were applied perorally by gavage at 5 mg/kg each and by i.v. Injection at 1 mg/kg each to male 12 weeks old C57BI/6J or Sprague Dawley rats and plasma concentrations of the test items were determined by LC-MS/MS after time points as indicated. In the case of Cynomolgus monkeys ([…]), the dose was adjusted to 12 mg/kg p.o., no i.v. injection was given (FIG. 1a, 1b and Table 2). […]

compound="O=C(O)c1cccc(C2CC2c2ccc(OCc3c(-c4c(Cl)cccc4Cl)noc3C3CC3)cc2Cl)c1 (racemic)" result="7340 ng/mL"

Below: the item to evaluate.
Note down Cmax recorded for O=C(O)c1ccc(C2CC2c2ccc(OCc3c(-c4c(Cl)cccc4Cl)noc3C3CC3)cc2Cl)cc1 (racemic)
2220 ng/mL

---

- experiment_notes: Pharmacokinetics in rat after intravenous administration 1 mg/kg
- Format: in vivo, Male Sprague Dawley Rat
- particulars: male, Sprague Dawley, plasma, iv; rat, 1 mg/kg i.v., 2.00 hr
observation_type: concentration at 2 hr (ng/mL)
Give just the number in ng/mL; leave the unit off.

molecule="O=C(O)c1cccc(C2CC2c2ccc(OCc3c(-c4c(Cl)cccc4Cl)noc3C3CC3)cc2Cl)c1 (racemic) [Example 4]" result_number=78.9

Note down concentration at 2 hr recorded for O=C(O)c1ccc(C2CC2c2ccc(OCc3c(-c4c(Cl)cccc4Cl)noc3C3CC3)cc2Cl)cc1 (racemic) [Example 12]
37.7

Note down concentration at 2 hr recorded for CC(C)c1onc(-c2c(Cl)cccc2Cl)c1COc1ccc(/C=C/c2cccc(C(=O)O)c2)c(Cl)c1 [GW4064, reference compound]
25

---

- experiment_notes: Pharmacokinetics in rat after oral administration 5 mg/kg
- Type: in vivo, Male Sprague Dawley Rat
- particulars: male, Sprague Dawley, plasma, oral 5 mg/kg vs i.v. 1 mg/kg, read-out: Absolute Bioavailability
In this section, each of the molecules is paired with its reported bioavailability.
Don't forget the unit after the value.

Note down bioavailability recorded for O=C(O)c1cccc(C2CC2c2ccc(OCc3c(-c4c(Cl)cccc4Cl)noc3C3CC3)cc2Cl)c1 (racemic) [Example 4]
8.8%

Note down bioavailability recorded for O=C(O)c1ccc(C2CC2c2ccc(OCc3c(-c4c(Cl)cccc4Cl)noc3C3CC3)cc2Cl)cc1 (racemic) [Example 12]
30.9%

---

- experiment_notes: Pharmacokinetics in rat after oral administration 5 mg/kg
- Format: in vivo, Male Sprague Dawley Rat
- particulars: male, Sprague Dawley, plasma, oral 5 mg/kg
observation_type: MRT last (h)
Give just the number in h; leave the unit off.

compound="O=C(O)c1cccc(C2CC2c2ccc(OCc3c(-c4c(Cl)cccc4Cl)noc3C3CC3)cc2Cl)c1 (racemic)" observation_type="MRT last" unit_of_measure=h result_number=2.97

Below: the item to evaluate.
Note down MRT last recorded for O=C(O)c1ccc(C2CC2c2ccc(OCc3c(-c4c(Cl)cccc4Cl)noc3C3CC3)cc2Cl)cc1 (racemic)
2.42

---

- experiment_notes: Pharmacokinetics in rat after intravenous administration 1 mg/kg
- Assay type: in vivo, Male Sprague Dawley Rat
- particulars: male, Sprague Dawley, plasma, iv; rat, 1 mg/kg i.v.
observation_type: MRT last (min)
Give just the number in min; leave the unit off.

The following molecules have reported results that may help.
molecule="O=C(O)c1cccc(C2CC2c2ccc(OCc3c(-c4c(Cl)cccc4Cl)noc3C3CC3)cc2Cl)c1 (racemic)" result_number=49.8
molecule="CC(C)c1onc(-c2c(Cl)cccc2Cl)c1COc1ccc(/C=C/c2cccc(C(=O)O)c2)c(Cl)c1 [GW4064, reference compound]" result_number=50.4

Note down MRT last recorded for O=C(O)c1ccc(C2CC2c2ccc(OCc3c(-c4c(Cl)cccc4Cl)noc3C3CC3)cc2Cl)cc1 (racemic)
46.8

---

- experiment_notes: Pharmacokinetics in rat after intravenous administration 1 mg/kg
- Format: in vivo, Male Sprague Dawley Rat
- particulars: male, Sprague Dawley, plasma, iv; rat, 1 mg/kg i.v.
observation_type: Vd (L/kg)
Give just the number in L/kg; leave the unit off.

Note down Vd recorded for CC(C)c1onc(-c2c(Cl)cccc2Cl)c1COc1ccc(/C=C/c2cccc(C(=O)O)c2)c(Cl)c1 [GW4064, reference compound]
5.98

Note down Vd recorded for O=C(O)c1ccc(C2CC2c2ccc(OCc3c(-c4c(Cl)cccc4Cl)noc3C3CC3)cc2Cl)cc1 (racemic)
4.82

Note down Vd recorded for O=C(O)c1cccc(C2CC2c2ccc(OCc3c(-c4c(Cl)cccc4Cl)noc3C3CC3)cc2Cl)c1 (racemic)
1.79

The reported numbers originate from patent US8952042B2.
